# Tested on: Escherichia coli TOP10;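 note: peptides expressed intracellularly from a pBAD plasmid library in pooled LB shake-flask culture, induced with 0.3% L-arabinose, DNA abundance read by NGS, three biological replicates, DESeq2 with apeglm shrinkage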
# RUN_DESCRIPTION: shrunken log2 fold change of peptide-encoding DNA abundance (4.5 h post-induction vs induction); higher = less antimicrobial activity (less host growth inhibition)
# PROTOCOL_CONDITIONS: time post-induction: 4.5 h; library: site-saturation at positions 5, 18, 19, 20
Binary classification by shrunken log2 fold change, with 0.06 as an inclusive lower bound for Met; all other cases are Not met.

> print(dat)
            record.sequence  classification
 1  RRIRPRPPRLPRPRPRPSQSPRP         Not met
 2  RRIRFRPPRLPRPRPRPPSPPRP             Met
 3  RRIRNRPPRLPRPRPRPKVNPRP         Not met
 4  RRIRPRPPRLPRPRPRPQGMPRP         Not met
 5  RRIRHRPPRLPRPRPRPYLWPRP         Not met
 6  RRIRTRPPRLPRPRPRPQHLPRP         Not met
 7  RRIRFRPPRLPRPRPRPQWRPRP             Met
 8  RRIRCRPPRLPRPRPRPIKRPRP         Not met
 9  RRIRARPPRLPRPRPRPAEKPRP         Not met
10  RRIRTRPPRLPRPRPRPHDLPRP         Not met
11  RRIRMRPPRLPRPRPRPRMKPRP             Met
12  RRIRCRPPRLPRPRPRPHWHPRP         Not met
13  RRIRRRPPRLPRPRPRPRHGPRP             Met
14  RRIRRRPPRLPRPRPRPVLLPRP             Met
15  RRIRSRPPRLPRPRPRPVPWPRP             Met
16  RRIRDRPPRLPRPRPRPLWKPRP         Not met
17  RRIRVRPPRLPRPRPRPMYQPRP         Not met
18  RRIRNRPPRLPRPRPRPILAPRP         Not met
19  RRIRCRPPRLPRPRPRPWLWPRP             Met
20  RRIRKRPPRLPRPRPRPIQWPRP         Not met
21  RRIRVRPPRLPRPRPRPTLNPRP         Not met
22  RRIRHRPPRLPRPRPRPEIDPRP             Met
23  RRIRDRPPRLPRPRPRPVINPRP         Not met
24  RRIRTRPPRLPRPRPRPFSGPRP         Not met
25  RRIRFRPPRLPRPRPRPFEYPRP         Not met
26  RRIRDRPPRLPRPRPRPFALPRP             Met
27  RRIRSRPPRLPRPRPRPHDMPRP         Not met
28  RRIRMRPPRLPRPRPRPALWPRP             Met
29  RRIRIRPPRLPRPRPRPFVAPRP         Not met
30  RRIRLRPPRLPRPRPRPKQCPRP         Not met
31  RRIRARPPRLPRPRPRPEAPPRP             Met
32  RRIRNRPPRLPRPRPRPPFDPRP             Met
33  RRIRYRPPRLPRPRPRPNLYPRP         Not met
34  RRIRDRPPRLPRPRPRPAQFPRP             Met
35  RRIRGRPPRLPRPRPRPKDTPRP             Met
36  RRIRIRPPRLPRPRPRPKRFPRP             Met
37  RRIRHRPPRLPRPRPRPIYEPRP         Not met
38  RRIRGRPPRLPRPRPRPTTSPRP             Met
39  RRIRTRPPRLPRPRPRPTPKPRP             Met
40  RRIRLRPPRLPRPRPRPLQDPRP             Met
41  RRIRPRPPRLPRPRPRPWTWPRP         Not met
42  RRIRLRPPRLPRPRPRPQYVPRP         Not met
43  RRIRIRPPRLPRPRPRPKAQPRP         Not met
44  RRIRPRPPRLPRPRPRPMTCPRP         Not met
45  RRIRTRPPRLPRPRPRPTRMPRP             Met
46  RRIRKRPPRLPRPRPRPAMHPRP             Met
47  RRIRWRPPRLPRPRPRPVWMPRP             Met
48  RRIRCRPPRLPRPRPRPDGPPRP             Met
49  RRIRTRPPRLPRPRPRPQSDPRP         Not met
50  RRIRCRPPRLPRPRPRPDIMPRP         Not met
51  RRIRIRPPRLPRPRPRPALIPRP         Not met
52  RRIRQRPPRLPRPRPRPWPVPRP             Met
53  RRIRERPPRLPRPRPRPYAKPRP         Not met
54  RRIRCRPPRLPRPRPRPFHIPRP         Not met
55  RRIRCRPPRLPRPRPRPEMEPRP         Not met
